system: Mycobacterium tuberculosis; assay: Antimycobacterial activity against STM/INH/RIF resistant Mycobacterium tuberculosis clinical isolate 9449/2007 strain assessed as bacterial growth inhibition incubated for 14 days by two-fold serial dilution method; assay type: functional; conditions: 9449/2007, 336 h, time 14 day
For each record, write down the corresponding MIC.
One number for each entry, in µM.

Reference set (3 entries):
INSERT INTO measurements (compound, endpoint_unit, readout_value) VALUES
  ('CC1COc2c(N3CCN(C)CC3)c(F)cc3c(=O)c(C(=O)O)cn1c23 (stereo unspecified)', 'µM', 2.8),
  ('C/C(=N\NC(=O)c1ccncc1)C(=O)Nc1ccc(Oc2ccccc2)cc1', 'µM', 16),
  ('C/C(=N\NC(=O)c1ccncc1)C(=O)Nc1ccc(-c2ccccc2)cc1', 'µM', 64);

Pending compound:
Documented MIC of CNC(C)[C@@H]1CC[C@@H](N)[C@@H](O[C@H]2[C@H](O)[C@@H](O[C@H]3OC[C@](C)(O)[C@H](NC)[C@H]3O)[C@H](N)C[C@@H]2N)O1.CN[C@@H]1[C@@H](O)[C@@H](O[C@@H]2[C@@H](O)[C@H](O[C@H]3O[C@H](C(C)N)CC[C@H]3N)[C@@H](N)C[C@H]2N)OC[C@]1(C)O.CN[C@@H]1[C@@H](O)[C@@H](O[C@@H]2[C@@H](O)[C@H](O[C@H]3O[C@H](CN)CC[C@H]3N)[C@@H](N)C[C@H]2N)OC[C@]1(C)O (stereo partly specified) : 1

###

tested on: Mycobacterium tuberculosis; assay: Antimycobacterial activity against STM/INH/EMB/RIF/OFX resistant Mycobacterium tuberculosis clinical isolate 7357/1998 strain assessed as bacterial growth inhibition incubated for 21 days by two-fold serial dilution method; assay type: functional; details: 7357/1998, 504 h, time 21 day
Quantity Kind: MIC (µM)
Numbers only, in µM.

INSERT INTO assay_data (compound, quantity_kind, readout_value) VALUES
  ('CNC(C)[C@@H]1CC[C@@H](N)[C@@H](O[C@H]2[C@H](O)[C@@H](O[C@H]3OC[C@](C)(O)[C@H](NC)[C@H]3O)[C@H](N)C[C@@H]2N)O1.CN[C@@H]1[C@@H](O)[C@@H](O[C@@H]2[C@@H](O)[C@H](O[C@H]3O[C@H](C(C)N)CC[C@H]3N)[C@@H](N)C[C@H]2N)OC[C@]1(C)O.CN[C@@H]1[C@@H](O)[C@@H](O[C@@H]2[C@@H](O)[C@H](O[C@H]3O[C@H](CN)CC[C@H]3N)[C@@H](N)C[C@H]2N)OC[C@]1(C)O (some centres undefined)', 'MIC', 1),
  ('CC1COc2c(N3CCN(C)CC3)c(F)cc3c(=O)c(C(=O)O)cn1c23 (centres undefined)', 'MIC', 11),
  ('C/C(=N\NC(=O)c1ccncc1)C(=O)Nc1ccc(Oc2ccccc2)cc1', 'MIC', 16);

Pending compound:
MIC of C/C(=N\NC(=O)c1ccncc1)C(=O)Nc1ccc(-c2ccccc2)cc1 , assay on Mycobacterium tuberculosis, is 125

###

test system: Mycobacterium tuberculosis; test: Antimycobacterial activity against STM/INH/EMB/RIF/OFX/CLO-resistant Mycobacterium tuberculosis clinical isolate Praha 4 assessed as bacterial growth inhibition incubated for 21 days by two-fold serial dilution method; assay type: functional; settings: Praha 4, 504 h, time 21 day
Quantity Kind: MIC (µM)
One number for each entry, in µM.

Reference set (2 entries):
INSERT INTO results (molecule, quantity_kind, readout_value) VALUES
  ('C/C(=N\NC(=O)c1ccncc1)C(=O)Nc1ccc(Oc2ccccc2)cc1', 'MIC', 16),
  ('CNC(C)[C@@H]1CC[C@@H](N)[C@@H](O[C@H]2[C@H](O)[C@@H](O[C@H]3OC[C@](C)(O)[C@H](NC)[C@H]3O)[C@H](N)C[C@@H]2N)O1.CN[C@@H]1[C@@H](O)[C@@H](O[C@@H]2[C@@H](O)[C@H](O[C@H]3O[C@H](C(C)N)CC[C@H]3N)[C@@H](N)C[C@H]2N)OC[C@]1(C)O.CN[C@@H]1[C@@H](O)[C@@H](O[C@@H]2[C@@H](O)[C@H](O[C@H]3O[C@H](CN)CC[C@H]3N)[C@@H](N)C[C@H]2N)OC[C@]1(C)O (some centres undefined)', 'MIC', 0.5);

Pending molecule:
Documented MIC of C/C(=N\NC(=O)c1ccncc1)C(=O)Nc1ccc(-c2ccccc2)cc1 : 64
